In this section we review reported IC50 values for a set of compounds.
Target: Factor D (Homo sapiens (Human))
Sequence (P00746 26-253): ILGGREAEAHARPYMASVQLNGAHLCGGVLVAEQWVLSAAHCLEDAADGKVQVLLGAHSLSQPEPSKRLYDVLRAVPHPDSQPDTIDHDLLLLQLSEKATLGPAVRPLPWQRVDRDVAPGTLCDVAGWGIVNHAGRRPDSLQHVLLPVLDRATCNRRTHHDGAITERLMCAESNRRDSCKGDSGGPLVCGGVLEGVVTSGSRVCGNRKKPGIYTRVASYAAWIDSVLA
Experiment: biochemical
Assay type: biochemical
Settings: read-out: IC50

>  <smi>
NC(=O)n1cc(NC(=O)N2C[C@H]3C[C@H]3[C@H]2C(=O)N[C@H](CO)c2cccc(Cl)c2F)c2ccccc21

>  <IC50 [µM]>
0.01

$$$$
>  <smi>
COC(=O)[C@H](CC(C)C)NC(=O)[C@@H]1C[C@H](N)CN1C(=O)Nc1cn(C(N)=O)c2ccccc12

>  <IC50 [µM]>
1.35

$$$$
>  <smi>
NC(=O)n1cc(NC(=O)N2C[C@@H](N)C[C@H]2C(=O)NCc2ccc3ccccc3c2)c2ccccc21

>  <IC50 [µM]>
11.4

$$$$
>  <smi>
CC(=O)c1cn(CC(=O)N2C[C@H](F)C[C@H]2C(=O)NCc2cccc(Cl)c2F)c2ccc(OC(F)(F)F)cc12

>  <IC50 [µM]>
0.031

$$$$

---

Molecular target: Factor D (Homo sapiens (Human))
Experiment: biochemical
Format: biochemical
Details: read-out: IC50
pIC50: −log10 of the molar value. Structures can show the parent of a compound that is named as a salt.
In this section we review reported pIC50 values for a set of molecules.

>  <molecule>
COCCOc1ccc2c(c1)c(C(C)=O)nn2CC(=O)N1[C@@H]2C[C@@H]2C[C@H]1C(=O)Nc1cccc(OC(F)(F)F)c1F [Example 770]

>  <pIC50>
8.05

$$$$
>  <molecule>
NC(=O)n1cc(NC(=O)N2[C@@H]3C[C@@H]3C[C@H]2C(=O)N[C@H](CO)c2cccc(Cl)c2F)c2ccccc21 [Example 203]

>  <pIC50>
8.22

$$$$
>  <molecule>
CC(=O)c1cn(CC(=O)N2C[C@H](F)C[C@H]2C(=O)NCc2cccc(Cl)c2F)c2ccccc12 [Example 507]

>  <pIC50>
7.80

$$$$
>  <molecule>
NC(=O)c1cn(CC(=O)N2C[C@H](F)C[C@H]2C(=O)NCc2cccc(Cl)c2F)c2cc(OCCO)ccc12 [Example 594]

>  <pIC50>
7.07

$$$$
>  <molecule>
NC(=O)c1nn(CC(=O)N2C[C@H](F)C[C@H]2C(=O)Nc2cccc(Br)n2)c2ccccc12 [Example 739]

>  <pIC50>
7.64

$$$$
>  <molecule>
NC(=O)n1cc(NC(=O)N2C[C@@H](O)C[C@H]2C(=O)NCc2cccc(Cl)c2F)c2ccccc21 [Example 331]

>  <pIC50>
7.46

$$$$
>  <molecule>
CC(=O)c1cn(CC(=O)N2C[C@](C)(F)C[C@H]2C(=O)NCc2cccc(Cl)c2F)c2ncccc12 [Example 530]

>  <pIC50>
7.14

$$$$
>  <molecule>
CO[C@H]1[C@@H](C(=O)NCc2cccc(Cl)c2F)N(C(=O)Cn2nc(C(C)=O)c3ccc(C(=O)O)cc32)C[C@@H]1F [Example 640]

>  <pIC50>
8.10

$$$$
>  <molecule>
NC(=O)n1cc(NC(=O)N2C[C@H](F)C[C@H]2C(=O)NCc2cccc(Cl)c2F)c2ccc(O)cc21 [Example 393]

>  <pIC50>
8.15

$$$$
>  <molecule>
COC(=O)c1ccc2c(C(C)=O)cn(CC(=O)N3[C@@H]4C[C@@H]4C[C@H]3C(=O)NCc3cccc(Cl)c3F)c2n1 [Example 689]

>  <pIC50>
6.81

$$$$
>  <molecule>
COc1cnc2c(c1)c(C(C)=O)cn2CC(=O)N1[C@@H]2C[C@@H]2C[C@H]1C(=O)NCc1cccc(Cl)c1F [Example 494]

>  <pIC50>
7.30

$$$$
>  <molecule>
NC(=O)c1cn(CC(=O)N2C[C@H](F)C[C@H]2C(=O)NCc2cccc(Cl)c2F)c2cc(F)c(F)cc12 [Example 492]

>  <pIC50>
6.63

$$$$
>  <molecule>
NC(=O)n1cc(NC(=O)N2C3CC3C[C@H]2C(=O)NCc2cncc(Cl)c2)c2ccccc21 (stereo partly shown) [Example 228]

>  <pIC50>
7.00

$$$$
>  <molecule>
CC(=O)c1cn(CC(=O)N2C[C@](C)(F)C[C@H]2C(=O)NCc2cccc(Cl)c2F)c2ccncc12 [Example 502]

>  <pIC50>
6.35

$$$$
>  <molecule>
CC(=O)c1nn(CC(=O)N2[C@@H]3C[C@@H]3C[C@H]2C(=O)NCc2cccc(Cl)c2F)c2cc(C(=O)O)ccc12 [Example 639]

>  <pIC50>
7.21

$$$$
>  <molecule>
CCc1cccc(NC(=O)[C@@H]2CCCN2C(=O)Nc2cn(C(N)=O)c3ccccc23)n1 [Example 238]

>  <pIC50>
6.19

$$$$
>  <molecule>
NC(=O)n1cc(NC(=O)N2[C@@H]3C[C@@H]3C[C@H]2C(=O)NCc2cccc(Cl)c2F)c2cc(O)ccc21 [Example 371]

>  <pIC50>
8.52

$$$$
>  <molecule>
C[C@@]1(C(=O)Nc2cccc(OC(F)(F)F)c2)CCCN1C(=O)Nc1cn(C(N)=O)c2ccccc12 [Example 192]

>  <pIC50>
4.75

$$$$
>  <molecule>
NC(=O)n1cc(NC(=O)N2C[C@@H](N)C[C@H]2C(=O)NCc2ccccc2)c2ccccc21 [Example 28]

>  <pIC50>
5.60

$$$$
>  <molecule>
COc1ccc(F)c(F)c1CNC(=O)[C@@H]1SCCN1C(=O)Nc1cn(C(N)=O)c2ccccc12 [Example 262]

>  <pIC50>
6.70

$$$$
>  <molecule>
COc1ccc2c(c1)c(NC(=O)N1C[C@H](F)C[C@H]1C(=O)Nc1cccc(OC(F)(F)F)c1F)cn2C(N)=O [Example 298]

>  <pIC50>
8.15

$$$$
>  <molecule>
CC(=O)c1nn(CC(=O)N2C[C@H](F)C[C@H]2C(=O)NCc2cccc(Cl)c2F)c2cnccc12 [Example 623, formate]

>  <pIC50>
7.62

$$$$
>  <molecule>
O=C(NCc1cccc(Cl)c1F)[C@@H]1C[C@H]2C[C@H]2N1C(=O)Cn1cc(C(=O)C(F)(F)F)c2ccccc21 [Example 495]

>  <pIC50>
7.72

$$$$
>  <molecule>
NC(=O)n1cc(NC(=O)N2C[C@H](F)C[C@H]2C(=O)Nc2cccc(OC(F)(F)F)c2F)c2ccccc21 [Example 274]

>  <pIC50>
7.85

$$$$
>  <molecule>
NC(=O)c1cn(CC(=O)N2CCC[C@H]2C(=O)Nc2cccc(OC(F)(F)F)c2)c2ccccc12 [Example 118]

>  <pIC50>
4.76

$$$$
>  <molecule>
CC(=O)c1cn(CC(=O)N2C[C@H]3C[C@H]3[C@H]2C(=O)NCc2cccc(Cl)c2F)c2cnccc12 [Example 506]

>  <pIC50>
6.48

$$$$
>  <molecule>
CC(=O)c1cn(CC(=O)N2C[C@H](F)C[C@H]2C(=O)NCc2cccc(Cl)c2F)c2cc(Cl)ccc12 [Example 531]

>  <pIC50>
7.96

$$$$
>  <molecule>
COC(=O)c1cccc(NC(=O)[C@@H]2CCCN2C(=O)Nc2cn(C(N)=O)c3ccccc23)c1 [Example 219]

>  <pIC50>
5.73

$$$$

Numbers sourced from patent US9085555B2.
